B1: library; numbered along this chain (parent)
chain: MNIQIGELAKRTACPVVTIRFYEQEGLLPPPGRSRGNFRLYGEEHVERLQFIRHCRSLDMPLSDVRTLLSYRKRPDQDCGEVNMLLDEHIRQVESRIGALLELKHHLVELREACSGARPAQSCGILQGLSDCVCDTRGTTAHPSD

Variants of: B1
assay.protocol: sfGFP reporter fluorescence (15 h) (µM FITC); higher = higher leak
particulars: library round: Round 0; ligand: none
property.name: sfGFP reporter fluorescence
Output: the number by itself.

Below, each entry is followed by its recorded sfGFP reporter fluorescence result.
1. MNIQIGELAKRTACPVVTIRFYEQEGLLPPPGRSRGNFRLVGEEHVERLQFIRHCRSLDMPLSDVRTLLSYRKRPDQDCGEVNMLLDEHIRQVESRIGALLELKHHLVELREACSGARPAQSCGILQGLSDCVCDTRGTTAHPSD [Y41V] ... 0.059
2. MNIQIGELAKRTACPVVTIRFYEQEGLLPPPGRSRGNFRLYGEEHVERLQFIRHCRSLDMPLSDVRTLLSYRKRPDQDCGEVNMLLDEHIRQVESRIGALLELKHHLVELREACSGARPAQSCGILQGLSDCVCETRGTTAHPSD [D135E] ... 0.0579
3. MNIQIGELAKRTACPVVTIRFYEQEGLLPPPGRSRGNFRLYGEEHVERLQFIRHCRSLDMPLSDVRTLLSYRKRPDQDCGEVNMLLDEHIRQVESRIGALLELKHHLVGLREACSGARPAQSCGILQGLSDCVCDTRGTTAHPSD [E109G] ... 0.0564
4. MNIQIGHLAKRTACPVVTIRFYEQEGLLPPPGRSRGNFRLYGEEHVERLQFIRHCRSLDMPLSDVRTLLSYRKRPDQDCGEVNMLLDEHIRQVESRIGALLELKHHLVELREACSGARPAQSCGILQGLSDCVCDTRGTTAHPSD [E7H] ... 0.0614
5. MNIQIGELAKRTACCVVTIRFYEQEGLLPPPGRSRGNFRLYGEEHVERLQFIRHCRSLDMPLSDVRTLLSYRKRPDQDCGEVNMLLDEHIRQVESRIGALLELKHHLVELREACSGARPAQSCGILQGLSDCVCDTRGTTAHPSD [P15C] ... 0.0656
6. MNIQIGELAKRTACPVVTIRFYEQEGLLPPPGRSRGNFRLYGEEHVERLQFIRHCRSLDMPLSDVRTLLSYRKRPDQDCGEVNMLLDEHIRQVESRIGALLELKHHLVELREACSGARPAQSCGILQGGSDCVCDTRGTTAHPSD [L129G] ... 0.0526

Problem: What does the data say about its sfGFP reporter fluorescence? Entry: MNIQIGELAKRTACPVVTIRFYEQEGLLPPPGRSRGNFRLYGEEHVERLQFIRHCRSLDMPLSDVRTLLSYRKRPDQDCGEVNMLLDEHIRQVLSRIGALLELKHHLVELREACSGARPAQSCGILQGLSDCVCDTRGTTAHPSD [E94L]
Solution: 0.0579

Problem: What does the data say about its sfGFP reporter fluorescence? Entry: MNIQIGELAKRTACPVVTIRFYEQEGLLPPPGRSRGNFRLYGEEHVERLQFIRHCRSLDLPLSDVRTLLSYRKRPDQDCGEVNMLLDEHIRQVESRIGALLELVHHLVELREACSGARPAQSCGILQILSDCVCDTRGTTAHPSD [M60L K104V G128I]
Solution: 0.312

Problem: What does the data say about its sfGFP reporter fluorescence? Entry: MNIQIGELAKRTACPVVTIRFYEQEGLDPPPGRSRGNFRLYGEEHVERLQFIRHCRSLDMPLSDVRTLLSYRKRPDQDCGEVNMLLDEHIRQVESRIGALLELKHHLVELREACSGARPAQSCGILQGLSDCVCDTRGTTAHPSD [L28D]
Solution: 0.0619

Problem: What does the data say about its sfGFP reporter fluorescence? Entry: MNIQIGELAKRTACPVVTIRFYEQEGLLPPPGRSRGNFRLYGEEHVERLQFIRHCRSLDMPLSDVRTLLSYRKRPDQDCGEVNMLLDEHIRQVESRIGALLEAKHHLVELREACSGARPAQSCGILQGLSDCVCDTRGTTAHPSD [L103A]
Solution: 0.0629

Problem: What does the data say about its sfGFP reporter fluorescence? Entry: MNIQIGELAKRTACPVVTIRFYEQEGLLPPPGRSRGNFRLYGEEHVERLQFIRHCRSLDMPLSDVRTLLSYRKRPDQDCGEVNMLLDEHIRQVESRIGALLELKHHLVELREACSGARPAQSCGILQVLSDCVCDTRGTTAHPSD [G128V]
Solution: 0.0647

Problem: What does the data say about its sfGFP reporter fluorescence? Entry: MNIQIGELAKRTACPTVTIRFYEQEGLLPPPGRSRGNFRLYGEEHVERLQFIRHCRSLDMPLSDVRTLLSYRKRPDQDCGEVNMLLDEHIRQVESRIGALLELKHHLVELREACSGARPAQSCGILQGLSDCVCDTRGTTAHPSD [V16T]
Solution: 0.0641

Problem: What does the data say about its sfGFP reporter fluorescence? Entry: MNIQIGELAKRTACPVVTIRFYEQEGLLPPPGRSRGNFRLQGEEHVERLQFIRHCRSLDMPLSDVRTLLSYRKRPDQDCGEVNMLLDEHIRQVESRIGALLELKHHLVELREACSGARPAQSCGILQGLSDCVCDTRGTTAHPSD [Y41Q]
Solution: 0.0581

src = the supplement of paper PMC12783771
